Origin of values: patent US5342834A

- Method Description: Metabolism (5α reduction) of 3H-androgens by rat epididymis
- Assay type: in vitro ADME
- Study Conditions: rat, epididymis homogenate, pH 7.4, androgen = 100%, read-out: Conversion of 5α reduced metabolites: Diols
Recorded measurements of metabolised, one per entry
Record the value in %, omitting the unit from your answer.

- Compound: "C[C@]12CC[C@H]3[C@@H](CCC4=CC(=O)CC[C@@]43C)[C@@H]1CC[C@@H]2O [T, testosterone]"
  Units Label: "%"
  metabolised: 86

In the following, a different compound is considered.
Dear colleague, I am looking for the recorded metabolised of the following compound: C[C@]12CC[C@H]3[C@@H](CCC4=CC(=O)CC[C@@H]43)[C@@H]1CC[C@@H]2O [19NT, 19-nortestosterone]
57

----------
- Method Description: Metabolism (decrease of steroid level) in incubation with rat liver microsomes
- Type: in vitro ADME
- Study Conditions: after 30 min of incubation, read-out: steroid remaining unaltered
Quantity Measured: remaining at 0.5 h (%)
Record the value in %, omitting the unit from your answer.

Dear colleague, I am looking for the recorded remaining at 0.5 h of the following molecule: C[C@@H]1CC2=CC(=O)CC[C@@H]2[C@H]2CC[C@]3(C)[C@@H](O)CC[C@H]3[C@@H]21
85

----------
- Method Description: Metabolism (5α reduction) of 3H-androgens by rat ventral prostate homogenate
- Type: in vitro ADME
- Study Conditions: rat, ventral prostate homogenate; ventral prostate; androgen = 100%; 30 min incubation; read-out: Conversion of 5α reduced metabolites: 5α-dihydro-steroid
Recorded measurements of metabolised at 0.5 h, one per entry
Record the value in %, omitting the unit from your answer.

- Molecule: "C[C@]12CC[C@H]3[C@@H](CCC4=CC(=O)CC[C@@]43C)[C@@H]1CC[C@@H]2O [T, testosterone]"
  Observed Result: 48

In the following, a different molecule is considered.
Dear colleague, I am looking for the recorded metabolised at 0.5 h of the following molecule: C[C@]12CC[C@H]3[C@@H](CCC4=CC(=O)CC[C@@H]43)[C@@H]1CC[C@@H]2O [19NT, 19-nortestosterone]
22
